// reported pIC50 for each item listed
Biological target: rh integrin α4β7 (Homo sapiens, UniProt P13612+P26010)
Construct: purchased R&D Systems 5397-A30
Sequence (P13612 34-977 limits assumed): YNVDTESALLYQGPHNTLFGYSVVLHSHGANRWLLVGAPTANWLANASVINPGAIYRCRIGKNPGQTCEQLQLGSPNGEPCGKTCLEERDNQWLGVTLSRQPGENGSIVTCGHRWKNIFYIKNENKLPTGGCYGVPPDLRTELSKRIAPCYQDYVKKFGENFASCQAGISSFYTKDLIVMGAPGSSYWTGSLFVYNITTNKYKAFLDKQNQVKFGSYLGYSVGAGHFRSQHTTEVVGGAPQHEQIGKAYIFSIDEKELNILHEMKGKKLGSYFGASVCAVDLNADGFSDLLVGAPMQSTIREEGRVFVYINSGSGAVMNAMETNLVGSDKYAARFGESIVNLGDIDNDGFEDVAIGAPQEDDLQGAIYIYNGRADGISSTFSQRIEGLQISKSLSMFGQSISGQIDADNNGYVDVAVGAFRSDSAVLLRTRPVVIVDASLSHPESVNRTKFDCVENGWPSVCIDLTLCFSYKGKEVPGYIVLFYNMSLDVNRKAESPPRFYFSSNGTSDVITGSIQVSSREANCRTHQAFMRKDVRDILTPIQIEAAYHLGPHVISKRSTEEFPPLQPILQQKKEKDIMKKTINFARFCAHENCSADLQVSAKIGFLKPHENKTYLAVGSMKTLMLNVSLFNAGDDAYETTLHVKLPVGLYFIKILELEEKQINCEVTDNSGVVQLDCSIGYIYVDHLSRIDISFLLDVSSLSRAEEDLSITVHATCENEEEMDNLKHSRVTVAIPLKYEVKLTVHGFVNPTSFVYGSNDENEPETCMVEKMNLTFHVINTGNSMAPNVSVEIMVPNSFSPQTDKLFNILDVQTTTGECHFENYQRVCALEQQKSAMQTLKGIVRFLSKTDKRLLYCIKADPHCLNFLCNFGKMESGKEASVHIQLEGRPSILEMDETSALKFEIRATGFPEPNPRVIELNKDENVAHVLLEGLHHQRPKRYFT
Sequence (P26010 20-723 limits assumed): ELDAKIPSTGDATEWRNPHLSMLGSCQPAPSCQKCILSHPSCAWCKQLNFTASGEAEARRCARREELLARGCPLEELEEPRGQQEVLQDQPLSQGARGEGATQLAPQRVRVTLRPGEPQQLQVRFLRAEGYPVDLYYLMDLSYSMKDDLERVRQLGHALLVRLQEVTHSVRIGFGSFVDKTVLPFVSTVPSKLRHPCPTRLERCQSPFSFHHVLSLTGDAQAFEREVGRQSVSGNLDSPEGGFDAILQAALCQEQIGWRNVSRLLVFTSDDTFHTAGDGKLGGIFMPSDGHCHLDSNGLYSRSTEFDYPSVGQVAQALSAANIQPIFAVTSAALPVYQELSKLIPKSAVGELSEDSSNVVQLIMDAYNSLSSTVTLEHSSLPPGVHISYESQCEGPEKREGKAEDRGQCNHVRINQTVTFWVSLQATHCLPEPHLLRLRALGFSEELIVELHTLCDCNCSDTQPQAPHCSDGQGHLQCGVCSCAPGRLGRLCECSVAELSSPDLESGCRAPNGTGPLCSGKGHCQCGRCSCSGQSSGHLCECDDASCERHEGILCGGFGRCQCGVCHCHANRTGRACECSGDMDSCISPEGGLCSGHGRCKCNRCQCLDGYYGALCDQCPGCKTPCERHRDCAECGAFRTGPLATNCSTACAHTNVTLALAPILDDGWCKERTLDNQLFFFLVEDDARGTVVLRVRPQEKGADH
Test: α4β7-MAdCAM Competition ELISA
Format: binding
Settings: thioether monomer peptides, Table 6; read-out: ELISA A4B7
pIC50: −log10 of the molar value. Where a SMILES comes first, the peptide text is derived from it.
endpoint-label: pIC50

[
  {
    "compound": "CC(C)C[C@@H]1NC(=O)[C@H]([C@@H](C)O)NC(=O)[C@H](CC(=O)O)NC(=O)[C@H](CO)NC(=O)[C@H](CCCNC(=N)N)N(C)C(=O)c2ccccc2CSCC[C@@H](C(=O)N[C@@H](Cc2c[nH]c3ccccc23)C(=O)N[C@@H](CCC(=O)O)C(=O)N[C@H](CCCCN)C(N)=O)NC1=O [compound 67] (HELM PEPTIDE1{[meR].S.D.T.L.[O=C([C@H](CCS[*:3])N[*:1])[*:2]].W.E.[dK].[am]}|CHEM1{[O=C(c1ccccc1C[*:2])[*:1]]}$PEPTIDE1,CHEM1,1:R1-1:R1|PEPTIDE1,CHEM1,6:R3-1:R2$$$V2.0)",
    "obs-value": "> 7.60"
  },
  {
    "compound": "CC(C)C[C@@H]1NC(=O)[C@H]([C@@H](C)O)NC(=O)[C@H](CC(=O)O)NC(=O)[C@H](CO)NC(=O)[C@H](CCCNC(=N)N)N(C)C(=O)c2ccccc2CSC(C)(C)[C@@H](C(=O)N[C@@H](Cc2c[nH]c3ccccc23)C(=O)N[C@H](CCC(=O)O)C(=O)N[C@H](CO)C(N)=O)NC1=O [compound 106] (HELM PEPTIDE1{[meR].S.D.T.L.[Pen].W.[dE].[dS].[am]}|CHEM1{[O=C(c1ccccc1C[*:2])[*:1]]}$PEPTIDE1,CHEM1,1:R1-1:R1|PEPTIDE1,CHEM1,6:R3-1:R2$$$V2.0)",
    "obs-value": "> 7.60"
  },
  {
    "compound": "CC(C)C[C@@H]1NC(=O)[C@H]([C@@H](C)O)NC(=O)[C@H](CC(=O)O)NC(=O)[C@H](CO)NC(=O)[C@H](CCCNC(=N)N)N(C)C(=O)c2ccccc2CSC(C)(C)[C@@H](C(=O)N[C@@H](Cc2ccc3ccccc3c2)C(=O)N[C@H](CCC(=O)O)C(N)=O)NC1=O [compound 114] (HELM PEPTIDE1{[meR].S.D.T.L.[Pen].[O=C([C@H](Cc1ccc2ccccc2c1)N[*:1])[*:2]].[dE].[am]}|CHEM1{[O=C(c1ccccc1C[*:2])[*:1]]}$PEPTIDE1,CHEM1,1:R1-1:R1|PEPTIDE1,CHEM1,6:R3-1:R2$$$V2.0)",
    "obs-value": "> 7.60"
  },
  {
    "compound": "CC(C)C[C@@H]1NC(=O)[C@H]([C@@H](C)O)NC(=O)[C@H](CC(=O)O)NC(=O)[C@H](CO)NC(=O)[C@H](CCCNC(=N)N)NC(=O)c2ccccc2CSC[C@@H](C(=O)N[C@@H](Cc2c[nH]c3ccccc23)C(=O)N[C@H](CCCCN)C(N)=O)NC1=O [compound 59]",
    "obs-value": "6.00 to 7.00"
  },
  {
    "compound": "CC(C)C[C@@H]1NC(=O)[C@H]([C@@H](C)O)NC(=O)[C@H](CC(=O)O)NC(=O)[C@H](CO)NC(=O)[C@H](CCCNC(=N)N)N(C)C(=O)c2ccccc2CSC(C)(C)[C@@H](C(=O)N[C@@H](Cc2c[nH]c3ccccc23)C(=O)N[C@H](CCC(=O)O)C(=O)N[C@H](Cc2c[nH]cn2)C(N)=O)NC1=O [compound 109] (HELM PEPTIDE1{[meR].S.D.T.L.[Pen].W.[dE].[dH].[am]}|CHEM1{[O=C(c1ccccc1C[*:2])[*:1]]}$PEPTIDE1,CHEM1,1:R1-1:R1|PEPTIDE1,CHEM1,6:R3-1:R2$$$V2.0)",
    "obs-value": "> 7.60"
  }
]

These entries and their values trace back to patent US20260217767A1.
